# assay-target: T1, 食蟹猴CD38胞外区 (mfCD38) with C-terminal His tag, mfCD38-his (cynomolgus monkey (Macaca fascicularis), UniProt Q5VAN0 44-301)
# T1 construct: not shown: His tag added at the C-terminus
# T1 sequence (Q5VAN0 44-301): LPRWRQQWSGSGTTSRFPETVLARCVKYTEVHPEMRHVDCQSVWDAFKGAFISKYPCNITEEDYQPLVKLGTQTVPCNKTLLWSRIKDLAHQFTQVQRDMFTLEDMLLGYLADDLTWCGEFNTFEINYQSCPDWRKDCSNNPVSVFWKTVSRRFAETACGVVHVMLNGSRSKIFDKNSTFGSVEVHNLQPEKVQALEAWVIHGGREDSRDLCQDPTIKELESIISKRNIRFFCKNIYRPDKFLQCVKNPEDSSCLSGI
# experiment: SPR (Biacore), antibody captured by anti-human Fc on CM5, mfCD38 as analyte
measured-attribute: Kd (nM)
Report the figure in nM without appending any unit label.

[
  {
    "binder": "S5B8VH-h2+S5B8VK-h2 (antibody, human IgG1, V domains shown, Humanized, expressed as a human IgG1 whole antibody; also called S5B8人源化分子) VH: QVQLVQSGAEVKKPGASVKVSCKASGYAFTNSWMHWVRQAPGQGLEWMGEIHPQSGRTNYNEKFKGRVTMTRDTSTSTVYMELSSLRSEDTAVYYCARDLLQFGNQYYYAMDYWGQGTLVTVSS VL: DIVMTQTPLSLPVTPGEPASISCRSSQSLVHSNGNTYLHWYLQKPGQSPQLLIYKVSNRFSGVPDRFSGSGSGTDFTLKISRVEAEDVGVYYCSQSTHVPLTFGQGTKLEIK",
    "observed-value": 3.48
  }
]

Query: Let me know recorded Kd for S5B8VH-h2+S5B8VK-h1 (antibody, human IgG1, V domains shown, Humanized, expressed as a human IgG1 whole antibody; also called S5B8人源化分子) VH: QVQLVQSGAEVKKPGASVKVSCKASGYAFTNSWMHWVRQAPGQGLEWMGEIHPQSGRTNYNEKFKGRVTMTRDTSTSTVYMELSSLRSEDTAVYYCARDLLQFGNQYYYAMDYWGQGTLVTVSS VL: DVVMTQSPLSLPVTLGQPASISCRSSQSLVHSNGNTYLHWFQQRPGQSPRRLIYKVSNRFSGVPDRFSGSGSGTDFTLKISRVEAEDVGVYYCSQSTHVPLTFGQGTKLEIK , thanks.
Reply: 9.66
